- Read-out: Interleukin 17F (IL17F), IL17F (gene 112744)
- assay.comment: BSK_BT_xIL17F: BioMAP Diversity Plus: BT Assay for Interleukin 17F (IL17F) Biomarker Activity (AID 2284243)
- measurement.context: primary human B cells with PBMC
Activity calls are given as the source filed them. The calls were made as follows: active = hit-call score of the fitted dose curve at least 0.9, where 1 is the maximum; inactive = score below 0.9.
Log the outcome using a class from active, inactive

// known answers, use as guide
O=c1ssc(Cl)c1Cl; active
CC(Cl)CN(C)C (stereo unspecified); inactive
CCCCC(CC)COC(=O)c1c(Br)c(Br)c(Br)c(Br)c1C(=O)OCC(CC)CCCC (stereo unspecified); inactive
CCOP(=S)(S)OCC; inactive
COC(=O)C(F)(F)C(F)(F)OC(F)(C(F)(F)F)C(F)(F)OC(F)=C(F)F (stereo unspecified); inactive
COP(N)(=S)OC; inactive
O=C(O)C(F)(OC(F)(F)C(F)(F)C(F)(F)F)C(F)(F)F (stereo unspecified); inactive
C=CC(=O)OCC(CC)(COC(=O)C=C)COC(=O)C=C; active
N#Cc1c(-c2ccc(Cl)cc2)[nH]c(C(F)(F)F)c1Br; active
CCOP(=S)(OCC)SCSc1ccc(Cl)cc1; inactive

## Input Outcome? CCCCC(CC)COP(=O)(Oc1ccccc1)Oc1ccccc1 (stereo unspecified)
## Output active

## Input Outcome? CC(C)Nc1ccc(Nc2ccccc2)cc1
## Output active

## Input Outcome? CCCCOCCOP(=O)(OCCOCCCC)OCCOCCCC
## Output inactive

## Input Outcome? NC(=O)C(F)(F)C(F)(F)F
## Output inactive

## Input Outcome? OCC(F)(F)OC(F)(F)C(F)(F)OC(F)(F)CO
## Output inactive

## Input Outcome? O=C(O)C(F)(F)C(F)(F)C(=O)O
## Output inactive

## Input Outcome? c1ccc2c(c1)sc1ccccc12
## Output inactive

## Input Outcome? O=P(OCC(Br)CBr)(OCC(Br)CBr)OCC(Br)CBr (stereo unspecified)
## Output active

## Input Outcome? O=C(O)C(F)(F)OC(F)(F)C(F)(F)OC(F)(F)F
## Output inactive

## Input Outcome? Nc1ccc([N+](=O)[O-])cc1Cl
## Output inactive

## Input Outcome? Cc1ccc2c(c1N)C(=O)c1ccccc1C2=O
## Output active

* * *

- target.or.test.system: Bile acid receptor (Homo sapiens)
- assay.comment: OT_FXR_FXRSRC1_0480: Odyssey Thera (OT) 8-hour HEK293T Protein-Complementation Assay for Farnesoid X receptor/SRC-1 Co-activator (AID 2283383)
Records with an inconclusive call do not appear. Active and inactive are the calls of the source. The calls were made as follows: active = hit-call score of the fitted dose curve at least 0.9, where 1 is the maximum; inconclusive = response in the unintended direction; inactive = score below 0.9.
Log the outcome using a class from yes (1) (active), no (0) (inactive)

// known answers, use as guide
O=S(=O)(c1ccc(O)cc1)c1ccc(O)cc1; no (0)
O=P(Oc1ccccc1)(Oc1ccccc1)Oc1ccccc1; yes (1)
CCCCN(CC)C(=O)SCCC; no (0)

## Input Outcome? O=[N+]([O-])c1ccc(Cl)c(Cl)c1
## Output no (0)

## Input Outcome? O=C(CBr)OCc1ccccc1
## Output no (0)

## Input Outcome? CC(C)(C)OOC(C)(C)C
## Output no (0)

## Input Outcome? O=C(O)C1C(C(=O)O)C2(Cl)C(Cl)=C(Cl)C1(Cl)C2(Cl)Cl (configuration not stated)
## Output no (0)

## Input Outcome? Cc1ccc([N+](=O)[O-])cc1C
## Output no (0)

## Input Outcome? CCCCN(CCCC)N=O
## Output no (0)

## Input Outcome? ClC(Cl)(Cl)c1ccccc1
## Output no (0)

## Input Outcome? O=NN1CCCC1
## Output no (0)

## Input Outcome? CCOc1ccc(C(C)(C)COCc2cccc(Oc3ccccc3)c2)cc1
## Output no (0)

## Input Outcome? O=P(OCC(Br)CBr)(OCC(Br)CBr)OCC(Br)CBr (configuration not stated)
## Output yes (1)

## Input Outcome? CCOP(=S)(OCC)SCSCC
## Output yes (1)

## Input Outcome? CCNc1nc(Cl)nc(NC(C)(C)C)n1
## Output no (0)

## Input Outcome? c1nc[nH]n1
## Output no (0)

## Input Outcome? CCCCC(CC)COC(=O)c1c(Br)c(Br)c(Br)c(Br)c1C(=O)OCC(CC)CCCC (configuration not stated)
## Output no (0)

* * *

- assay.comment: BSK_SAg_Proliferation: Cell Proliferation Assessment in the BioMAP Diversity Plus: SAg Assay (AID 2283095);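 also: relative cell number as total protein by SRB absorbance in sub-confluent culture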
- measurement.context: primary human HUVEC with PBMC
The source made the active and inactive calls. How the source made its calls: active means hit-call score of the fitted dose curve at least 0.9, where 1 is the maximum; inactive means score below 0.9.
Log the outcome using a class from true (1) for active, false (0) for inactive

// known answers, use as guide
O=P(OCC(Br)CBr)(OCC(Br)CBr)OCC(Br)CBr (stereo not drawn); false (0)
CCCN(CCC)c1c([N+](=O)[O-])cc(C(C)C)cc1[N+](=O)[O-]; true (1)
O=[N+]([O-])c1ccc(Cl)c(Cl)c1; false (0)
CC(Cl)CN(C)C (stereo not drawn); true (1)
O=[N+]([O-])c1ccccc1; false (0)

## Input Outcome? CCCCc1ccccc1
## Output false (0)

## Input Outcome? CCOP(=S)(NC(C)C)Oc1ccccc1C(=O)OC(C)C (stereo not drawn)
## Output false (0)

## Input Outcome? ClC(Cl)(Cl)c1ccccc1
## Output false (0)

## Input Outcome? COCCOCCO
## Output false (0)

## Input Outcome? Cc1cccc(N)c1
## Output false (0)

## Input Outcome? CCOP(=S)(Oc1ccc([N+](=O)[O-])cc1)c1ccccc1 (stereo not drawn)
## Output true (1)

## Input Outcome? O=C(O)C=CC(F)(C(F)(F)F)C(F)(F)F
## Output false (0)

## Input Outcome? CCCCN(CCCC)N=O
## Output false (0)

## Input Outcome? O=C(O)C(F)(OC(F)(F)C(F)(F)C(F)(F)F)C(F)(F)F (stereo not drawn)
## Output false (0)

## Input Outcome? OCC1CO1 (stereo not drawn)
## Output false (0)

## Input Outcome? CC(C)(C)OOC(C)(C)C
## Output false (0)

## Input Outcome? c1ccc(OP(Oc2ccccc2)Oc2ccccc2)cc1
## Output false (0)

## Input Outcome? CC(C)(C)c1ccccc1OP(=O)(Oc1ccccc1)Oc1ccccc1
## Output true (1)

## Input Outcome? c1ccc2c(c1)Nc1ccccc1S2
## Output true (1)

## Input Outcome? CC(Cc1ccc(OCC(=O)O)cc1)NCC(O)c1csc(C(F)(F)F)n1 (stereo not drawn)
## Output false (0)

## Input Outcome? O=c1ssc(Cl)c1Cl
## Output true (1)

## Input Outcome? CCOP(=S)(OCC)SCS(=O)(=O)CC
## Output false (0)

## Input Outcome? CN(C)C(=O)Cl
## Output false (0)

* * *

- Read-out: Interferon-gamma inducible Protein 10 (IP10), CXCL10 (gene 3627)
- assay.comment: BSK_hDFCGF_IP10: BioMAP Diversity Plus: hDFCGF Assay for Interferon-gamma inducible Protein 10 (IP10) Biomarker Activity (AID 2283053)
- measurement.context: primary human foreskin fibroblasts; actives raise or lower the signal
- Protocol: BSK_hDFCGF is a cell-based, multiplexed-readout assay that uses foreskin fibroblast, a human skin primary cell, with measurements taken at 24 hours after chemical dosing in a 96-well plate.BSK_hDFCGF_IP10 is an assay component measured in the BSK_hDFCGF assay. It measures IP-10 antibody related to regulation of gene expression using ELISA technology.Data from the assay component BSK_hDFCGF_IP10 was analyzed into 1 assay endpoint. […]
Active and inactive are the calls of the source. Rule for the calls: active = hit-call score of the fitted dose curve at least 0.9, where 1 is the maximum; inactive = score below 0.9.
endpoint.label: AC50

// below: answered molecules
CCCCN(CCCC)SN(C)C(=O)Oc1cccc2c1OC(C)(C)C2; 8.12 µM (active)
ClC(Cl)=C(c1ccc(Cl)cc1)c1ccccc1Cl; 3.72 µM (active)
CCN(CC)c1ccccc1; inactive
O=C(O)C1C(C(=O)O)C2(Cl)C(Cl)=C(Cl)C1(Cl)C2(Cl)Cl (stereo not drawn); inactive
CN(C)C(=O)Cl; inactive

## Input Could you please provide reported AC50 for CCCCOCCOP(=O)(OCCOCCCC)OCCOCCCC ? Thanks!
## Output inactive

## Input Could you please provide reported AC50 for CC(O)C(F)(F)C(F)(F)F (stereo not drawn) ? Thanks!
## Output inactive

## Input Could you please provide reported AC50 for OCC1CO1 (stereo not drawn) ? Thanks!
## Output inactive

## Input Could you please provide reported AC50 for CCC1(c2ccccc2)C(=O)N=C(O)NC1=O (stereo not drawn) ? Thanks!
## Output inactive

## Input Could you please provide reported AC50 for Cc1ccc2c(c1N)C(=O)c1ccccc1C2=O ? Thanks!
## Output inactive

## Input Could you please provide reported AC50 for CCCN(CCC)c1c([N+](=O)[O-])cc(C(C)C)cc1[N+](=O)[O-] ? Thanks!
## Output 20 µM (active)

## Input Could you please provide reported AC50 for CC(Cl)CN(C)C (stereo not drawn) ? Thanks!
## Output inactive

## Input Could you please provide reported AC50 for N#Cc1c(-c2ccc(Cl)cc2)[nH]c(C(F)(F)F)c1Br ? Thanks!
## Output 20 µM (active)

## Input Could you please provide reported AC50 for CCOc1ccc(C(C)(C)COCc2cccc(Oc3ccccc3)c2)cc1 ? Thanks!
## Output inactive

## Input Could you please provide reported AC50 for Nc1ccc2ccccc2c1 ? Thanks!
## Output inactive

## Input Could you please provide reported AC50 for CCCCC(CC)COC(=O)c1c(Br)c(Br)c(Br)c(Br)c1C(=O)OCC(CC)CCCC (stereo not drawn) ? Thanks!
## Output inactive
